Test system: GP2d cells (KRAS G12D)
test: Cell-based pERK HTRF assay in GP2d cell (Biological Example 2)
measurement-context: GP2d, GP2d (KRAS G12D) cells, pERK HTRF; class symbols
Exercise: for every item that follows, state its recorded IC50.

Lab note: need IC50 with GP2d cells (KRAS G12D) for entry CCN1C[C@@H]2C[C@H](N(CC)c3nc(OC[C@@]45CCCN4C[C@H](F)C5)nc4c(F)c(-c5ccc(F)c6sc(N)c(C#N)c56)c(C(F)(F)F)cc34)CN2C1=O (atropisomer, axis not shown) , please look it up. < 100 nM

Look up IC50 with GP2d cells (KRAS G12D) for this compound: C[C@@H](c1cccnc1N)N(C)c1nc(OC[C@@]23CCCN2C[C@H](F)C3)nc2c(F)c(-c3ccc(F)c4sc(N)c(C#N)c34)c(C(F)(F)F)cc12 (atropisomer, axis not shown) < 100 nM

# returns recorded IC50 (system: GP2d cells (KRAS G12D)) for CCN(c1nc(OC[C@@]23CCCN2C[C@H](F)C3)nc2c(F)c(-c3ccc(F)c4sc(N)c(C#N)c34)c(C(F)(F)F)cc12)[C@H]1CCN(C(=O)OC)[C@H]1C (atropisomer, axis not shown) 100 to 1000 nM

Find IC50 (GP2d cells (KRAS G12D)) for the entry CCN(c1nc(OC[C@@]23CCCN2C[C@H](F)C3)nc2c(F)c(-c3ccc(F)c4sc(N)c(C#N)c34)c(C(F)(F)F)cc12)[C@H]1CCN(C(=O)OC2CCOCC2)C1 (atropisomer, axis not shown) < 100 nM

###

target-under-test: Avi-KRAS WT (1-169) GppNHp/RAF1 RBD-3xFLAG (52-151) (Homo sapiens)
Construct: Avi-KRAS WT (1-169)
Sequence (P01116 1-169 isoform P01116-2): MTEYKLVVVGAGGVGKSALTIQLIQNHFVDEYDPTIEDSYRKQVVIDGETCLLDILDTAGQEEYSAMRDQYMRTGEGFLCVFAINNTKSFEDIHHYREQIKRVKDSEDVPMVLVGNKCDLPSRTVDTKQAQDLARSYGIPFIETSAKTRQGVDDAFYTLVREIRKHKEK
test: Raf1-KRAS WT-GppNHP disruption HTRF assay (Biological Example 1)
Format: binding
measurement-context: KRAS WT-GppNHp/RAF1 RBD HTRF
measured-metric: IC50

Quick one: IC50 of CN(C)C(=O)c1cc2n(n1)CCN(c1nc(OC[C@@]34CCCN3C[C@H](F)C4)nc3c(F)c(-c4ccc(F)c5sc(N)c(C#N)c45)c(C(F)(F)F)cc13)C2 ? 0.1 to 1 µM

Please look up its IC50: C[C@@H]1[C@H](N(C)c2nc(OC[C@@]34CCCN3C[C@H](F)C4)nc3c(F)c(-c4ccc(F)c5sc(N)c(C#N)c45)c(Cl)cc23)CCN1C(=O)C(C)(C)F 1 to 10 µM

Which IC50 is listed for CCN(c1nc(OC[C@@]23CCCN2C[C@H](F)C3)nc2c(F)c(-c3ccc(F)c4sc(N)c(C#N)c34)c(C(F)(F)F)cc12)[C@H]1CCN(C(=O)C2CC2)C1 ? 0.1 to 1 µM

Return reported IC50; argument: C[C@@H]1[C@H](N(C)c2nc(OC[C@@]34CCCN3C[C@H](F)C4)nc3c(F)c(-c4ccc(F)c5sc(N)c(C#N)c45)c(C(F)(F)F)cc23)CCN1C(=O)C(C)(C)F 0.1 to 1 µM

Find the recorded IC50 belonging to N#Cc1c(N)sc2c(F)ccc(-c3c(C(F)(F)F)cc4c(N5C[C@H]6C[C@@H]5CO6)nc(OC[C@@]56CCCN5C[C@H](F)C6)nc4c3F)c12 (single isomer, unassigned) [Compound 288] and report it. > 10 µM

These data points were gathered from patent US20260042764A1.
